System: Caco-2
TEST_NAME: cell viability relative to DMSO; higher = less toxic
CONDITION_DESCRIPTION: 72 h; 1000 nM
OUTCOME_MEASURE: cell viability (%)
Write the value in % as a bare number.

                                   compound  outcome_measure  measured
0  CC(C)(C)NCC(O)c1ccc(O)c(CO)c1 (stereo not drawn) [albuterol]   cell viability      96.3

If you can, please state the reported cell viability value of Cc1[nH]c(/C=C2\C(=O)Nc3ccccc32)c(C)c1CCC(=O)O [orantinib] .
104

If you can, please state the reported cell viability value of COc1ccccc1OCC(O)CN1CCN(CC(=O)Nc2c(C)cccc2C)CC1 (stereo not drawn) [ranolazine] .
99.2

If you can, please state the reported cell viability value of N#CCC1(n2cc(-c3ncnc4[nH]ccc34)cn2)CN(C2CCN(C(=O)c3ccnc(C(F)(F)F)c3F)CC2)C1 [itacitinib] .
132

If you can, please state the reported cell viability value of CCN(CC)CCNC(=O)c1cc(Br)c(N)cc1OC [bromopride] .
94.6

If you can, please state the reported cell viability value of Cc1[nH]nc(C(F)(F)F)c1Cc1sc2c(c1C(=O)N1C[C@](C)(O)CO1)c(=O)n(C)c(=O)n2C(C)C [AZD3965] .
72
